Values were extracted from patent US12012457.

Molecular target: T1, extracellular domain of mouse IL23R (mIL23R ECD) (mouse, UniProt Q8K4B4 24-374)
T1 construct: also called mIL-23 ECD antigen
T1 sequence: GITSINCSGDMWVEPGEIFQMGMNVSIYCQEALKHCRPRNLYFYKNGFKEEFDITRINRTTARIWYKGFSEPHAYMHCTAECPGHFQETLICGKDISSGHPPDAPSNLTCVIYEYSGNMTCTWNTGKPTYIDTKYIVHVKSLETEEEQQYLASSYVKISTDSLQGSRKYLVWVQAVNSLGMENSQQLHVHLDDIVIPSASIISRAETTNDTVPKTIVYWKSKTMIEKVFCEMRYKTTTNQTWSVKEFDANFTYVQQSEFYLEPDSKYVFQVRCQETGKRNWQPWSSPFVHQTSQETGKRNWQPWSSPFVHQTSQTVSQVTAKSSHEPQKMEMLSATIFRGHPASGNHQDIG
Assay: periplasmic extract ELISA (PE-ELISA), 96-well plate, colorimetric
Measured Quantity: binding result

- Binder: "mIL23R VHH21 (VHH) VHH: QVQLQESGGGLVQPGGSLRLSCATSGFTFSSSAMTWVRQAPGKGLDWVSGIDSGGTTVYADSVKGRFTISKDNAKNTLYLQMNSLKTEDTAVYYCATGLPWGNTWRTTGQGTQVTVSS"
  Measured Quantity: "binding result"
  Val: "binds"
- Binder: "mIL23R VHH45 (VHH) VHH: QVQLQESGGGLVQPGGSLRLSCAASGFTFRLSAMRWVRQAPGKGLEWVSGIDSRGSTIYADSVEGRFTISKDNAKNTLYLQLNSLKTEDTAMYYCAQGVYGDTYSGSQGTQVTVSS"
  Measured Quantity: "binding result"
  Val: "binds"
- Binder: "mIL23R VHH24 (VHH) VHH: QVQLQESGGGSVQAGGSLRLSCAVSGYTFCMAWFRQAPGKEREGVARFYTRDGYTYYSGSVKGRFTISQNNAKNTLYLQMNSLKSEDTAMYYCAADLTRCSSNKNDFRYWGQGTQVTVSS"
  Measured Quantity: "binding result"
  Val: "binds"
- Binder: "mIL23R VHH38 (VHH) VHH: QVQLQESGGGLVQPGGSLRLSCAASGFTFSTSAMTWVRQAPGKGLDWVSGIDSGGTTVYADSVKGRFTISKDNAKNTLYLQMNSLKTEDTAVYYCATGLPWGNIWRTRGQGTQVTVSS"
  Measured Quantity: "binding result"
  Val: "binds"
- Binder: "mIL23R VHH5 (VHH) VHH: QVQLQESGGGSVQAGGSLRLSCAASGYTFCMAWFRQAPGKEREGVARFYTRDGYTYYSDSVKGRFTISQNNAKNTLYLQMNSLKSEDTAMYYCAADLARCSSNKNDFRYWGQGTQVTVSS"
  Measured Quantity: "binding result"
  Val: "binds"
- Binder: "mIL23R VHH35 (VHH) VHH: QVQLQESGGGLVQPGGSLRLACSASGFTFSSSAMTWVRQAPGKGLDWVSGIDSGGTTVYADSVKGRATILKDNAKNTLYLQMNSLKTEDTAVYYCATGLPWGNTWRTRGQGTQVTVSS"
  Measured Quantity: "binding result"
  Val: "binds"
- Binder: "mIL23R VHH41 (VHH) VHH: QVQLQESGGGLVQPGGSLRLTCAASGFTFSTSAMTWVRQAPGKGLDWVSGIDSGGTTVYADSVKGRFTISKDNAKNTLYLQMNSLKTEDTAVYYCATGLPWGNTWRTRGQGTQVTVSS"
  Measured Quantity: "binding result"
  Val: "binds"
- Binder: "mIL23R VHH39 (VHH) VHH: QVQLQESGGGLVQPGGSLRLSCAASGFTFSRSAMTWVRQAPGKGLDWVSGIDSGGTTVYADSVKGRFTISRDSAKNTLYLQMNGLKTEDTAVYYCAIGLPWGNTWRTRGQGTQVTVSS"
  Measured Quantity: "binding result"
  Val: "binds"
